Data provenance is patent US20130072517A1.

assay: Clinical Study #2: plasma pharmacokinetics of dextromethorphan, dextrorphan and quinidine, single and multiple dose; settings: human, in vivo, Tmax (plasma), mean, Day 1; EM; 30 mg DM HBr/25 mg Q sulfate capsule every 12 hours
experimentalEndpoint: Tmax (h)
Kindly provide the numeric value in h only, without the unit symbol.

# input molecule: COc1ccc2c(c1)[C@]13CCCCC1[C@H](C2)N(C)CC3 (single isomer, unassigned; (+)) [Dextromethorphan, (+)-3-methoxy-N-methylmorphinan] ; wanted: its Tmax 6.85

Quick one: CN1CC[C@@]23CCCC[C@@H]2[C@@H]1Cc1ccc(O)cc13 4

====

assay: Clinical Study #2: plasma pharmacokinetics of dextromethorphan, dextrorphan and quinidine, single and multiple dose; conditions: human, in vivo, Tmax (plasma), mean, Day 8; All Subjects; 30 mg DM HBr/25 mg Q sulfate capsule every 12 hours
Consider the following compounds; for each one, report its Tmax.
Kindly provide the numeric value in h only, without the unit symbol.

# input compound: COc1ccc2c(c1)[C@]13CCCCC1[C@H](C2)N(C)CC3 (single isomer, unassigned; (+)) [Dextromethorphan, (+)-3-methoxy-N-methylmorphinan] ; wanted: its Tmax 5.77

Quick one: CN1CC[C@@]23CCCC[C@@H]2[C@@H]1Cc1ccc(O)cc13 32.7
